protocol-text: Spectral characteristics: molar extinction coefficient and specific absorbance
Type: physicochemical
stated-conditions: A1cm^1%; ethyl acetate, 10 μg/ml
Description: The calculation of the molar extinction coefficient (ε) is made from the Beer-Lambert law: [formula] Wherein: A=absorbance I0=intensity of the incident light I=intensity of the transmitted light ε=molar extinction (or molar absorbance) coefficient in M^−1 cm^−1 l=path length in cm c=concentration in mol/l The molar extinction coefficient can be expressed with respect to a given mass of the product. […] This quantity is 1% by weight. […]
readout-name: Maximum specific absorbance UVA

# molecule, Maximum specific absorbance UVA
rows = [
    ("Oc1ccccc1-c1nnc(-c2ccccc2)c(-c2ccccc2)n1", 502),
    ("CC(C)(C)CC(C)(C)c1cc(Cc2cc(C(C)(C)CC(C)(C)C)cc(-n3nc4ccccc4n3)c2O)c(O)c(-n2nc3ccccc3n2)c1 [Tinosorb M ®, reference compound]", 552),
    ("CCCCC(CC)COc1ccc(-c2nc(-c3ccc(OC)cc3)nc(-c3ccc(OCC(CC)CCCC)cc3O)n2)c(O)c1 (stereo not shown) [Tinosorb S ®, reference compound]", 789),
    ("COc1ccc(-c2nnc(-c3cccc(C#N)c3)nc2-c2ccc(OC)cc2)cc1", 570),
]

A: COc1ccc(-c2nnc(-c3ccccc3C#N)nc2-c2ccc(OC)cc2)cc1
B: COc1ccc(C(=O)CC(=O)c2ccc(C(C)(C)C)cc2)cc1 [Parsol 1789 ®, reference compound]
C: Oc1ccc(-c2nnc(-c3ccccc3)c(-c3ccccc3)n2)cc1
D: COc1ccc(-c2nnc(N)nc2-c2ccc(OC)cc2)cc1
Enquiry: I would appreciate it if you could sort these 4 molecules by Maximum specific absorbance UVA, starting from the smallest number. Lab note: final answer is the ordered label list.
Return: D, C, A, B
(D: 249, C: 424, A: 661, B: 1100)

Recorded values, source patent US8053573B2.
